The values you see were collected from patent US9266964.

Each record here notes measured % inhibition at 10 nM.
# target desc: human plasma kallikrein (human, UniProt P03952 20-390; P03952 391-638)
# Sequence (P03952 20-390, chain 1 of 2): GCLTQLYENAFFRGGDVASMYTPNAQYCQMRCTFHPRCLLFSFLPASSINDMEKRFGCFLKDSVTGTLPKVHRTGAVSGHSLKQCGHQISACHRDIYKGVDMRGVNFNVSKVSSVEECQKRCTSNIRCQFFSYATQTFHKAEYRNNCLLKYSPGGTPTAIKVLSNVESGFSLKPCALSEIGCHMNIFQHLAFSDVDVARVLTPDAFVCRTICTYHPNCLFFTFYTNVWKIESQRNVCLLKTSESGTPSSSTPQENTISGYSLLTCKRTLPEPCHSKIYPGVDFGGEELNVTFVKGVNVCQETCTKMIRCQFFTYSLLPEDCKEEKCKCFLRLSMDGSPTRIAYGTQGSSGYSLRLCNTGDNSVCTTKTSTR
# Sequence (P03952 391-638, chain 2 of 2): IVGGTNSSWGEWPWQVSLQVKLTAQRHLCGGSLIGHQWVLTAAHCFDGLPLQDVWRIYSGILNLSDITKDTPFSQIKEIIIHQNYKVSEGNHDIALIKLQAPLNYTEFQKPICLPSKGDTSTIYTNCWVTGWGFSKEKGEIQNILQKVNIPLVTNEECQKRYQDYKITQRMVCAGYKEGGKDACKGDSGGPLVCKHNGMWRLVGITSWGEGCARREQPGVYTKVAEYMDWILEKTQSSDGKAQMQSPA
# procedure summary: cell-based or functional assay
// note: answer is a bare numeric in %

binder	% inhibition at 10 nM, %
M202-H05 (Fab, V domains shown) VH: EVQLLESGGGLVQPGGSLRLSCAASGFTFSHYIMMWVRQAPGKGLEWVSGIYSSGGITVYADSVKGRFTISRDNSKNTLYLQMNSLRAEDTAVYYCAFRRTGVPRRDVFDIWGQGTMVTVSS VL: DIQMTQSPSTLSASVGDRVTITCRASQSISSWLAWYQQKPGKAPNLLIYKASTLESGVPSRFSGSGSGTEFTLTISSLQPDDFATYYCQQYNTYWTFGQGTKVEIK	84

Continue with the binder presented below.
The value of % inhibition at 10 nM measured for the binder M198-A09 (Fab, V domains shown) VH: EVQLLESGGGLVQPGGSLRLSCAASGFTFSIYFMSWVRQAPGKGLEWVSSIRSSGGPTWYADSVKGRFTISRDNSKNTLYLQMNSLRAEDTAVYYCAYRRTGIPRRDAFDIWGQGTMVTVSS VL: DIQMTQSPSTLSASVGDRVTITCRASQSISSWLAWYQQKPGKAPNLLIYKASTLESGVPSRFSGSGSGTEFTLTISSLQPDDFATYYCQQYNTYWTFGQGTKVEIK turned out to be 77.3
